From: paper PMC5540273

- Test system: CDKL2;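 also: KINOMEscan kinase panel screen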
- assay conditions: concentration: 1 μM, replicates: in singlicate; n = 1
observed property: %Inh (%)
# number only, unit % dropped from output

Some solved cases for reference:
INSERT INTO results (compound, observed_value) VALUES
  ('Clc1cc(Cl)cc(Nc2ccnc(Nc3cc(Cl)cc(Cl)c3)n2)c1 [GSK175726]', 32),
  ('Cc1ccccc1-n1cnc2c(N)ncnc21 [SKF-97510]', 0),
  ('Cc1cc(NCC(c2ccccc2)c2ccccc2)nc(NCc2ccc(C(F)(F)F)cc2)n1 [GW497681]', 12),
  ('COc1ccc(Nc2nccc(NCCNC(=O)Nc3ccccc3F)n2)cc1 [GSK1379901]', 9),
  ('Cc1c(O)cccc1Nc1ccnc2ccc(C(F)(F)F)cc12.Cl [GW466413]', 5),
  ('Cn1ccc2ncnc(Oc3ccc(NC(=O)Nc4ccccc4)cc3)c21', 2),
  ('COC(=O)c1c(-c2ccccc2)c2cc(C(=O)O)ccc2c(=O)n1Cc1ccccc1', 6),
  ('C[C@@H]1CCCCN1c1cc(-c2ccc3c(N)n[nH]c3c2)nc(N)n1 [GSK2258759]', 6);

Now look at this entry.
Data request: Which %Inh value is on record for CCn1c(-c2cccnc2O)nc2cnccc21 [SB-736715] ?
Data returned: 0
